Reference for the values: patent EP4800012A1

Molecular target: PARP2 (Homo sapiens, UniProt Q9UGN5)
Sequence (Q9UGN5 whole entry, species assumed): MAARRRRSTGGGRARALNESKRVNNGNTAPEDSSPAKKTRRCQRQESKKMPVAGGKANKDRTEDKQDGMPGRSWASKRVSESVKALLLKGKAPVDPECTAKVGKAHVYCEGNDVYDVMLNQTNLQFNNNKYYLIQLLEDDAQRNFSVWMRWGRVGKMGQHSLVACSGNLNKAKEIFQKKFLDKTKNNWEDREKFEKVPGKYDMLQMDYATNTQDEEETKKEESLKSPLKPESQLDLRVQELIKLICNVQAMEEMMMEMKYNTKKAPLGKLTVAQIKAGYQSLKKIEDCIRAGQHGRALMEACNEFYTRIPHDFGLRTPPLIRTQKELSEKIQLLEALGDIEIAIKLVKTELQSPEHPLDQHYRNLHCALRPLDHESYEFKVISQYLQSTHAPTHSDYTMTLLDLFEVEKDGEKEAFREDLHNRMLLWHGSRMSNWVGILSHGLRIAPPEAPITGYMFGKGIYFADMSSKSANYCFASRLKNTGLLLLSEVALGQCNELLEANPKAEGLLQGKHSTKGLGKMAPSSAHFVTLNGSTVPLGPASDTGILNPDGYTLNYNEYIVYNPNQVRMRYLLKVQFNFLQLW
Experiment: PARP2 in vitro enzyme activity inhibition (chemiluminescence assay)
Assay type: biochemical
Conditions: read-out: PARP2 activity inhibition IC50; 5 nM of PARP2, method of test example 1
property-name: IC50

For this compound ( O=C(CCc1c[nH]c(=O)c(C(F)(F)F)c1N1CC2(CCC2)C1)Nc1ccc(-c2ncc(C(F)(F)F)cn2)cn1 [Example 70] ), measured IC50 is > 100 nM

====

Recorded pIC50, one value per entry.
System: NCI-H1373 cells
Assay: Inhibition on NCI-H1373 cell proliferation (Cell-Titer-Glo)
Format: cell-based
Conditions: Homo sapiens, 144 h; NCI-H1373 cells, incubation for 6 days, Cell-Titer-Glo; read-out: NCI-H1373 cell proliferation inhibition IC50
pIC50: −log10 of the molar value.

pIC50 for NCI-H1373 cells with input CC(CCCN(C)C(=O)c1cnc(-c2ncc(C(F)(F)F)cn2)cn1)Nc1cn[nH]c(=O)c1C(F)(F)F (stereo not shown) equals < 5.52

pIC50 for NCI-H1373 cells with input CC(CCCNC(=O)c1cnc(-c2cscn2)c(F)c1)Nc1cn[nH]c(=O)c1C(F)(F)F (stereo not shown) equals < 5.52

pIC50 for NCI-H1373 cells with input CCNC(=O)C(CCCNC(=O)c1ccc(-c2ncc(C(F)(F)F)s2)cc1)Nc1cn[nH]c(=O)c1C(F)(F)F (stereo not shown) equals > 6.52

====

Recorded pIC50, one value per entry.
Biological target: PARP7 (Homo sapiens)
Construct: purchased BPS 80527
Sequence (Q7Z3E1 whole entry): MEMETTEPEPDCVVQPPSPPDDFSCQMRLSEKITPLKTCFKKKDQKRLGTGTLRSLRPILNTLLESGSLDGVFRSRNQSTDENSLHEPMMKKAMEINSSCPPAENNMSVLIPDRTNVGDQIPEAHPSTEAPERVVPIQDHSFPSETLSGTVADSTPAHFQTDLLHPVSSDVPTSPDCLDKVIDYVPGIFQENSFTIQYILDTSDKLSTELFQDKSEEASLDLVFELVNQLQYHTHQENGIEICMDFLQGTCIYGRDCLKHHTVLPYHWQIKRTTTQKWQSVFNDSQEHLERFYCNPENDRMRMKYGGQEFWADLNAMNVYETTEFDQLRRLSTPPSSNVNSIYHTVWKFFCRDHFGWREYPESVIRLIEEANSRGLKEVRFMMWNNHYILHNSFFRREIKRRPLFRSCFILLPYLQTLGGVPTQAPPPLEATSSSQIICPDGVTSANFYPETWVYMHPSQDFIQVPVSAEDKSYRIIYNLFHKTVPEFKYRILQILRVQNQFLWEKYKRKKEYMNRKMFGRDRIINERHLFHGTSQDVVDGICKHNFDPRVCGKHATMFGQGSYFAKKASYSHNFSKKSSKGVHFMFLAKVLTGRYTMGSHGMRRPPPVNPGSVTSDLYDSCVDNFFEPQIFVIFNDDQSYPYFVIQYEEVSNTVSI
Test: Inhibition of the compound on PARP7 protein activity (ADP-ribosylation, chemiluminescence)
Format: biochemical
Conditions: Histone H1 coated plate, Biotin-Labeled NAD+, 2 h at room temperature, chemiluminescence; read-out: PARP7 activity inhibition IC50
pIC50: −log10 of the molar value.

Take a look at these entries with their results.
1. CN(C(=O)[C@@H](CCCNC(=O)c1ccc(-c2ncc(C(F)(F)F)s2)cc1)Nc1cn[nH]c(=O)c1C(F)(F)F)C1CC1 [Example 223] = 8.00 to 8.52
2. Cc1c(CCC(=O)Nc2ccc(-c3ncc(C(F)(F)F)cn3)cc2)c[nH]c(=O)c1C(F)(F)F [Example 10] = > 8.52
3. CC(CCCNC(=O)c1ccc(-c2ncc(N(C)C)s2)cc1)Nc1cn[nH]c(=O)c1C(F)(F)F (centres unmarked) [Example 57] = 8.00 to 8.52
4. CC(CCCNC(=O)c1ncc(-c2cscn2)cc1F)Nc1cn[nH]c(=O)c1C(F)(F)F (centres unmarked) [Example 182] = 8.00 to 8.52
5. CC(CCCNC(=O)c1ccc(-c2ncc(C(F)(F)F)s2)nc1)Nc1cn[nH]c(=O)c1C(F)(F)F (centres unmarked) [Example 211] = > 8.52
6. O=C(NCCC[C@@H](Nc1cn[nH]c(=O)c1C(F)(F)F)C(=O)NC1CCC1)c1ccc(-c2ncc(C(F)(F)F)s2)cc1 [Example 228] = 8.00 to 8.52

For this molecule ( CC1(F)CN(C(=O)[C@@H](CCCNC(=O)c2ccc(-c3ncc(C(F)(F)F)s3)cc2)Nc2cn[nH]c(=O)c2C(F)(F)F)C1 [Example 242] ), measured pIC50 is 8.00 to 8.52

For this molecule ( O=C(NCCC[C@@H](Nc1cn[nH]c(=O)c1C(F)(F)F)C(=O)N1CC[C@H](F)C1)c1ccc(-c2ncc(C(F)(F)F)s2)cc1 [Example 241] ), measured pIC50 is > 8.52

For this molecule ( CC(CCCNC(=O)c1ccc(-c2ncc(C(F)F)s2)cn1)Nc1cc[nH]c(=O)c1C(F)(F)F (centres unmarked) [Example 29] ), measured pIC50 is > 8.52

====

Recorded IC50, one value per entry.
System: NCI-H1373 cells
Assay: Inhibition on NCI-H1373 cell proliferation (Cell-Titer-Glo)
Type: cell-based
Details: Homo sapiens, 144 h; NCI-H1373 cells, incubation for 6 days, Cell-Titer-Glo; read-out: NCI-H1373 cell proliferation inhibition IC50

Take a look at these entries with their results.
1. CC[C@@H]1CN(C(=O)[C@@H](CCCNC(=O)c2ccc(-c3ncc(C(F)(F)F)s3)cc2)Nc2cn[nH]c(=O)c2C(F)(F)F)CCO1 [Example 262] = < 300 nM
2. COc1cnc(-c2ccc(C(=O)NCCCC(C)Nc3cc[nH]c(=O)c3C(F)(F)F)c(F)c2)s1 (stereo not shown) [Example 27] = > 3000 nM
3. CC(CCCNC(=O)c1ccc2c(=O)n(C)cnc2c1)Nc1cn[nH]c(=O)c1C(F)(F)F (stereo not shown) [Example 59] = > 3000 nM
4. O=C(NCCCC(Nc1cn[nH]c(=O)c1C(F)(F)F)C1CC1)c1ccc(-c2ncc(C(F)(F)F)s2)cc1 (stereo not shown) [Example 55] = 1000 to 3000 nM
5. O=C(NCCC[C@H]1CCN1c1cn[nH]c(=O)c1C(F)(F)F)c1cnc(-c2ncc(C(F)(F)F)cn2)cn1 [Example 164] = > 3000 nM

For this compound ( CC(C)NC(=O)[C@@H](CCCNC(=O)c1ccc(-c2ncc(C(F)(F)F)s2)cc1)Nc1cn[nH]c(=O)c1C(F)(F)F [Example 258] ), measured IC50 is < 300 nM

For this compound ( Cc1c(CCC(=O)Nc2ccc(-c3ncc(C(F)(F)F)cn3)cn2)c[nH]c(=O)c1C(F)(F)F [Example 13] ), measured IC50 is > 3000 nM

====

Target: PARP2 (Homo sapiens, UniProt Q9UGN5)
Test: PARP2 in vitro enzyme activity inhibition (chemiluminescence assay)
Assay type: biochemical
Settings: 5 nM of PARP2, method of test example 1; read-out: PARP2 activity inhibition IC50
pIC50: −log10 of the molar value.
property-name: pIC50

Take a look at these entries with their results.
1) O=C(NCCC[C@@H](Nc1cn[nH]c(=O)c1C(F)(F)F)C(=O)N1CC[C@H](F)C1)c1ccc(-c2ncc(C(F)(F)F)s2)cc1 = 8.00 to 8.52
2) C[C@H]1CCN(C(=O)[C@@H](CCCNC(=O)c2ccc(-c3ncc(C(F)(F)F)s3)cc2)Nc2cn[nH]c(=O)c2C(F)(F)F)C1 = 8.00 to 8.52

For this compound ( O=C(NCCCC(Nc1cn[nH]c(=O)c1C(F)(F)F)C(=O)NC1CCCOC1)c1ccc(-c2ncc(C(F)(F)F)s2)cc1 (stereo not shown) ), measured pIC50 is 8.00 to 8.52

For this compound ( O=C(NCCCC(Nc1cn[nH]c(=O)c1C(F)(F)F)C(=O)N1CC2(CCC2)C1)c1cnc(-c2ncc(C(F)(F)F)cn2)cn1 (stereo not shown) ), measured pIC50 is 7.52 to 8.00

For this compound ( CC(CCCNC(=O)c1ccc(-c2ncc(C(F)(F)F)s2)cc1)Nc1cn[nH]c(=O)c1C(F)(F)F (stereo not shown) ), measured pIC50 is > 8.52

For this compound ( O=C(NCCCC(Nc1cn[nH]c(=O)c1C(F)(F)F)C(=O)N1CCOCC1)c1ccc(-c2ncc(C(F)(F)F)s2)cc1 (stereo not shown) ), measured pIC50 is 8.00 to 8.52

For this compound ( Cc1c(CCC(=O)Nc2ccc(-c3ncc(C(F)(F)F)cn3)cc2)c[nH]c(=O)c1C(F)(F)F ), measured pIC50 is 8.00 to 8.52

For this compound ( CC1(C)CN(C(=O)C(CCCNC(=O)c2ccc(-c3ncc(C(F)(F)F)s3)cc2)Nc2cn[nH]c(=O)c2C(F)(F)F)C1 (stereo not shown) ), measured pIC50 is 8.00 to 8.52

For this compound ( CNC(=O)[C@@H](CCCNC(=O)c1ccc(-c2ncc(C(F)(F)F)s2)cc1)Nc1cn[nH]c(=O)c1C(F)(F)F ), measured pIC50 is 7.52 to 8.00

For this compound ( COC1(C)CN(C(=O)[C@@H](CCCNC(=O)c2ccc(-c3ncc(C(F)(F)F)s3)cc2)Nc2cn[nH]c(=O)c2C(F)(F)F)C1 ), measured pIC50 is 8.00 to 8.52

For this compound ( N#C[C@@H]1CCN(C(=O)[C@@H](CCCNC(=O)c2ccc(-c3ncc(C(F)(F)F)s3)cc2)Nc2cn[nH]c(=O)c2C(F)(F)F)C1 ), measured pIC50 is < 7.00

For this compound ( O=C(NCCC[C@@H](Nc1cn[nH]c(=O)c1C(F)(F)F)C(=O)N1CC[C@@H](F)C1)c1ccc(-c2ncc(C(F)(F)F)s2)cc1 ), measured pIC50 is > 8.52

For this compound ( O=C(NCCCC(Nc1cn[nH]c(=O)c1C(F)(F)F)C(=O)N1CCCC1)c1cnc(-c2ncc(C(F)(F)F)cn2)cn1 (stereo not shown) ), measured pIC50 is 7.52 to 8.00
